Listed here are compounds together with their documented EC50.
Test system: Dengue-2 (Strain New Guinea C)
assaySummary: Viral yield assay against Dengue-2 in Vero cells
Assay type: cell-based, Dengue virus
conditionContext: Dengue virus; Vero cells, MOI 0.1, harvested 48 hours post infection; read-out: Activity (EC50 class) against Dengue-2 Virus in Vero cells

The examples below pair each entry with its known result.
>>> recordedvalue("CC(=O)c1cccc(NC(=O)c2sc3nc(C)cc(C)c3c2N)c1")
"> 25 µM"
>>> recordedvalue("COCc1cc(C)nc2sc(C(=O)Nc3ccc(N4CCOCC4)cc3)c(N)c12")
"> 25 µM"
>>> recordedvalue("Cc1sc(NC(=O)c2sc3nc4c(cc3c2N)CN(C)CC4)c(C#N)c1C")
"5 to 25 µM"
>>> recordedvalue("CN1CCc2nc3sc(C(=O)Nc4ccc(C(F)(F)F)cc4)c(N)c3cc2C1")
"< 5 µM"
>>> recordedvalue("Nc1c(C(=O)Nc2ccc(S(N)(=O)=O)cc2)sc2nc3c(cc12)CCC3")
"> 25 µM"

Consider the compound shown here: `CC(C)NC(=O)c1sc2nc3c(cc2c1N)CN(C)CC3` What is its recorded EC50?
> 25 µM

Consider the compound shown here: `CCN(C(=O)c1sc2nc(C)cc(C)c2c1N)c1ccccc1` What is its recorded EC50?
5 to 25 µM

Consider the compound shown here: `COCc1cc(C)nc2sc3c(=O)n(-c4ccc(C(C)=O)cc4)nnc3c12` What is its recorded EC50?
> 25 µM

Consider the compound shown here: `Nc1c(C(=O)NCCc2ccccc2)sc2nc3c(cc12)CCCCC3` What is its recorded EC50?
> 25 µM

Consider the compound shown here: `CCc1nnc(NC(=O)c2sc3nc4c(cc3c2N)CCC4)s1` What is its recorded EC50?
> 25 µM

Consider the compound shown here: `COCc1cc(C)nc2sc(C(=O)Nc3ccc(C(C)=O)cc3)c(N)c12` What is its recorded EC50?
> 25 µM

Consider the compound shown here: `COCc1cc(C)nc2sc(C(=O)Nc3cccc(Cl)c3)c(N)c12` What is its recorded EC50?
5 to 25 µM
